experiment summary: Cellular viability qHTS for adrenocortical cancer (ACC) cell line NCI-H295R (AID 1963990); also: nearly all actives have a fitted effect of over 60% in size
cond: CellTiter-Glo ATP luminescence, 48 h; series mostly up to 46.1 µM
Results filed as inconclusive are left out. Activity calls are given as the source filed them. Calls follow the shape of the dose curve; as a rule, active = well fitted cell-killing curve with a large enough effect; inconclusive = small, poorly fitted or top-dose-only effect; inactive = flat fitted curve, though single readings scatter.
One label from this list, please: active, inactive

CCC[C@@H]1C[C@@H](C(=O)N[C@@H]([C@H]2O[C@H](SC)[C@H](O)[C@@H](O)[C@H]2O)[C@H](C)Cl)N(C)C1 : inactive
Cc1csc(NC(=O)c2sc3nc4c(c(C(F)(F)F)c3c2N)CCC4)n1 : inactive
CC[C@@H]([C@H](C)O)n1ncn(-c2ccc(N3CCN(c4ccc(OCC5CO[C@@](Cn6cncn6)(c6ccc(F)cc6F)C5)cc4)CC3)cc2)c1=O (stereo not given in full) : inactive
C[C@@]1(c2cc(-c3cncnc3)c(F)cc2F)CCSC(N)=N1 : inactive
COc1nc(N)nc2c1ncn2[C@@H]1O[C@H](CO)[C@@H](O)[C@@H]1O : inactive

Look up the recorded call for `O=C1CC2(CCCC2)CC(=O)N1CCCCN1CCN(c2ncccn2)CC1` in this test.
inactive

Look up the recorded call for `Cc1cc(C(=O)Nc2cc(Oc3ccc4nc(NC(=O)C5CC5)cn4n3)ccc2C)n(C)n1` in this test.
active

Look up the recorded call for `CN[C@@H](C)C(=O)N[C@H]1CCCC[C@H]2CC[C@@H](C(=O)N[C@@H](c3ccccc3)c3cn(CCCCc4ccc(CCCCn5cc([C@@H](NC(=O)[C@@H]6CC[C@@H]7CCCC[C@H](NC(=O)[C@H](C)NC)C(=O)N76)c6ccccc6)nn5)cc4)nn3)N2C1=O` in this test.
inactive

Look up the recorded call for CCC(Cc1c(I)cc(I)c(N)c1I)C(=O)O (stereo not given) in this test.
inactive

Look up the recorded call for `CCOc1ccccc1N=Nc1c(C)[nH]n(-c2nc(-c3ccccc3)cs2)c1=O` in this test.
inactive

Look up the recorded call for `Cc1cccc(Nc2nc(-c3ccncc3)cs2)c1` in this test.
active

* * *

study target: Cytochrome P450 3A7 (Homo sapiens) (UniProt P24462)
Sequence (P24462 whole entry, looked up): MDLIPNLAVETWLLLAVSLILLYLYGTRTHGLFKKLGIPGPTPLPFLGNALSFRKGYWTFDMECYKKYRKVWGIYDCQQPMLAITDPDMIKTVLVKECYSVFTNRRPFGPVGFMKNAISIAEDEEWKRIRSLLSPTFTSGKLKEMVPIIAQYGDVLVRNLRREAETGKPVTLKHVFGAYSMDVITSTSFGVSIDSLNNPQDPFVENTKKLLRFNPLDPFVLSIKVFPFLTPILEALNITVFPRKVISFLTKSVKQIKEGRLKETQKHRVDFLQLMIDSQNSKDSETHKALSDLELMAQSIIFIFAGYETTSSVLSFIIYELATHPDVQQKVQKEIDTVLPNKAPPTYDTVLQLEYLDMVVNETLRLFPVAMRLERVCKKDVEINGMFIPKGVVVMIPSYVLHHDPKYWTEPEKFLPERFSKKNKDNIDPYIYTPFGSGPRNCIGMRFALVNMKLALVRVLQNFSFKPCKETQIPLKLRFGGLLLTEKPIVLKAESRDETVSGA
experiment summary: Cytochrome P450 family 3 subfamily A member 7 (CYP3A7) small molecule antagonists: luciferase biochemical qHTS assay (AID 1963596); also: % is scaled to controls: 0 for no effect and ±100 for the full control effect; nearly all actives have a fitted effect of over 40% in size
cond: P450-Glo CYP3A7 enzyme luminescence, 1 h; series mostly up to 57.4 µM
Results filed as inconclusive are left out. Active and inactive are the calls of the source. The call rests on the fitted dose curve; in most records, active means well fitted inhibition curve with a large enough effect; inconclusive means small, poorly fitted or top-dose-only effect; inactive means no such curve, though single readings can be large or run the other way.
measurement kind: outcome

Consider the reported outcome for these compounds:
CC[C@H]1OC(=O)[C@H](C)[C@@H](O[C@H]2C[C@@](C)(OC)[C@@H](O)[C@H](C)O2)[C@H](C)[C@@H](O[C@@H]2O[C@H](C)C[C@H](N(C)C)[C@H]2O)[C@](C)(O)C[C@@H](C)CN(C)[C@H](C)[C@@H](O)[C@]1(C)O : inactive
CNc1c2c(nn1C)CCCC2 : inactive
CN1[C@@H]2CC[C@H]1CC(OC(=O)c1c[nH]c3ccccc13)C2 (stereo not given in full) : inactive
COC(=O)/C=C\C(=O)OC : inactive
CC(C[N+](C)(C)C)OC(N)=O (stereo not given) : inactive
Cc1cc(C(C)(C)C)c(O)c(C(C)(C)C)c1 : inactive
COc1c(OCCCN2CCOCC2)ccc2c3n(c(=NC(=O)c4cnc(N)nc4)nc12)CCN3 : inactive
CCCCCCCCCCCCCCCCNc1ccc(C(=O)O)cc1 : inactive
COc1ccc2cc(Br)ccc2c1 : inactive

With those in mind, consider the next compound.
Enter recorded outcome with Cytochrome P450 3A7 (Homo sapiens) (UniProt P24462) for `CCCCOc1ccc(C(=O)Nc2ccc(F)cc2F)cc1` here.
inactive

* * *

Entries and their activity (max response) values follow.
experiment summary: Cellular viability qHTS for adrenocortical cancer (ACC) cell line SW-13 (AID 1963989);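 also: cells grown in serum-free medium with ITS supplement; % is scaled to controls: 0 for no effect and ±100 for the full control effect; nearly all actives have a fitted effect of over 65% in size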
cond: SW-13 ACC cells viability, CellTiter-Glo, 48 h; stronger effect = lower value
Records with an inconclusive call do not appear.
Number only, in %; omit the unit.

Consider the reported activity (max response) for these compounds:
CC[C@]12CCCN3CCc4c(n(c5ccccc45)[C@@](O)(C(=O)OC)C1)[C@@H]32 : 1.04
Clc1ccc2c(c1)Nc1ccccc1S2 : -11.9
CCOC(=O)c1ccnc(CNCC(=O)N(CC)CCN(C)C)c1 : -23.8

Recall and state the measured activity (max response) for `CCOC(=O)[C@@](C)(N)Cc1ccc(O)c(O)c1` .
-4.97

Recall and state the measured activity (max response) for `CCCCN(CCCC)C(=O)CN1C[C@H](c2ccc3c(c2)OCO3)[C@@H](C(=O)O)[C@@H]1c1ccc(OC)cc1` .
-6

* * *

experiment summary: Quantitative highthroughput screen to assess conditional lethalithy of SEM cells grown in RPMI1640 with unreated serum (RPMI+s) (AID 1963883); also: nearly all actives have a fitted effect of over 35% in size; also: potency is read from the fitted curve at half-maximal effect;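 as to viability: 100% = DMSO wells and 0% = empty wells without cells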
cond: SEM B-ALL cells, CellTiter-Glo viability, 48 h; series mostly up to 45.8 µM
Experimental: Assay Provider: Jason Cantor Ph.D. Department of Biochemistry University of Wisconsin-Madison, Madison, WI, USA Chemical screening studies have identified drug sensitivities across hundreds of cancer cell lines but most putative therapeutics fail to translate. […] Sets of conditional anticancer compounds spanned phases of clinical development and included non-oncology drugs were assessed. […] 6; Detection; Luminescence, Viewlux PerkinElmer. […]
Records with an inconclusive call do not appear. Active and inactive are the calls of the source. The call rests on the fitted dose curve; in most records, active means well fitted cell-killing curve with a large enough effect; inconclusive means small, poorly fitted or top-dose-only effect, or effect the other way; inactive means no such curve, though single readings can be large or run the other way.
measurement kind: Potency

Consider the reported Potency for these molecules:
C=C1[C@H](n2cnc3c(=O)[nH]c(N)nc32)C[C@H](O)[C@H]1CO : 526 nM (active)
OCCCNc1cc(-c2ccnc(Nc3cccc(Cl)c3)n2)ccn1 : 235 nM (active)
CNC(=O)c1ccc(-c2cnc3ncc(Cc4ccc5ncccc5c4)n3n2)cc1F : inactive
COc1cc(Nc2ncc(F)c(Nc3ccc4c(n3)NC(=O)C(C)(C)O4)n2)cc(OC)c1OC : 1480 nM (active)
COCCCOc1ccnc(CS(=O)c2nc3ccccc3[nH]2)c1C (stereo unspecified) : inactive
N[C@@H]1CONC1=O : inactive
CCC[C@H](N[C@@H](C)C(=O)N1[C@@H]2CCCC[C@H]2C[C@H]1C(=O)O)C(=O)OCC : inactive
C[C@H](CCC(=O)O)[C@H]1CC[C@H]2[C@@H]3[C@H](O)C[C@@H]4C[C@H](O)CC[C@]4(C)[C@@H]3CC[C@]12C : inactive

Recall and state the measured Potency for `Nc1nc2c(ncn2COC(CO)CO)c(=O)[nH]1` .
20900 nM (active)

Recall and state the measured Potency for `N=C1SC(=Cc2ccc(-c3ccc4c(c3)C(=O)NC4=O)o2)C(=O)N1c1ccc(Br)cc1` .
13200 nM (active)

Recall and state the measured Potency for O=C(O)CSCC(=O)NC1CCSC1=O (stereo unspecified) .
inactive

* * *

experiment summary: Viability qHTS for spleen associated tyrosine kinase inhibitor (SYKi) naive MV4-11 cells (AID 1963823); also: nearly all actives have a fitted effect of over 40% in size; also: potency is read from the fitted curve at half-maximal effect
cond: MV4-11 AML viability, CellTiter-Glo luminescence, 72 h; series mostly up to 45 µM
Results filed as inconclusive are left out. Activity calls are given as the source filed them. Calls come from the whole dose curve; as a rule, active = well fitted cell-killing curve with a large enough effect; inconclusive = small, poorly fitted or top-dose-only effect, or effect the other way; inactive = no such curve, though single readings can be large or run the other way.
measurement kind: Potency

Consider the reported Potency for these compounds:
Nc1ncnc2c1c(-c1cccc(OCc3ccccc3)c1)cn2C1CC(CN2CCC2)C1 (centres undefined) : 0.58 µM (active)
C=CC(C)(C)c1[nH]c2ccccc2c1C[C@@H]1NC(=O)[C@H](Cc2c[nH]c3ccccc23)NC1=O : inactive
CCC(C)n1cc(C)c2c(C(=O)NCc3c(C)cc(C)[nH]c3=O)cc(-c3ccc(N4CCNCC4)nc3)cc21 (centres undefined) : 13 µM (active)
CC(=O)/C=C/C1C(C)CC(O[C@@H]2O[C@H](CO)[C@@H](O)[C@H](O)[C@H]2O)CC1(C)C (some centres undefined) : inactive
Cn1c(=O)c2c(ncn2CCO)n(C)c1=O : inactive
CC(C)C1CCC(C(=O)N[C@H](Cc2ccccc2)C(=O)O)CC1 (some centres undefined) : inactive
CN(Cc1ccc(C(=O)O)cc1)c1ccc(OCc2c(-c3c(Cl)cccc3Cl)noc2C2CC2)nc1C(F)(F)F : 20.6 µM (active)
CC1CC(O)C2(OC1=O)OC1C(O)C3C4CCC5CC(OC6OC(CO)C(O)C(O)C6OC6OC(C)C(O)C(O)C6O)CCC5(C)C4CCC3(C)C1C2C (centres undefined) : inactive

With those in mind, consider the next compound.
Recall and state the measured Potency for `COc1cccc2c1c(O)c(C(=O)N(C)c1ccc(C(F)(F)F)cc1)c(=O)n2C` .
inactive

* * *

experiment summary: Viability qHTS for spleen associated tyrosine kinase inhibitor (SYKi) drug resistant MV4-11 cells (AID 1963824); also: nearly all actives have a fitted effect of over 35% in size
cond: SYKi-resistant MV4-11 viability, CellTiter-Glo, 72 h; series mostly up to 45 µM
Records with an inconclusive call do not appear. Active and inactive are the calls of the source. Calls come from the whole dose curve; as a rule, active = well fitted cell-killing curve with a large enough effect; inconclusive = small, poorly fitted or top-dose-only effect, or effect the other way; inactive = no such curve, though single readings can be large or run the other way.
One label from this list, please: active, inactive

Please review the following examples before continuing.
O=C1NC(=O)/C(=C/c2cccc(C(F)(F)F)c2)S1 : inactive
CCc1cccc2c(CCO)c[nH]c12 : inactive
C=C[C@H]1[C@H](O[C@@H]2O[C@H](CO[C@@H]3OC[C@](O)(CO)[C@H]3O)[C@@H](O)[C@H](O)[C@H]2O)OC=C2C(=O)OCC[C@H]21 : inactive
CC1CCC2C(C(=O)O)=CC3(O)CC(C)(C)CC123 (stereo not given) : inactive

Look up the recorded call for OC1C(O)C(O)C(O)C(O)C1O (stereo not given) in this test.
inactive

Look up the recorded call for `C[C@@H]1O[C@@H](O[C@H]2[C@@H]3C=CO[C@@H](O[C@@H]4O[C@H](CO)[C@@H](O)[C@H](O)[C@H]4O)[C@@H]3[C@@]3(CO)O[C@@H]23)[C@H](O)[C@H](OC(=O)/C=C/c2ccc(O)c(O)c2)[C@H]1O` in this test.
inactive

Look up the recorded call for `Cc1nnsc1C(=O)Nc1ccc(-n2nc(C(F)(F)F)cc2C(F)(F)F)cc1` in this test.
active

Look up the recorded call for `CCOc1cc(CC(=O)N[C@@H](CC(C)C)c2ccccc2N2CCCCC2)ccc1C(=O)O` in this test.
inactive

Look up the recorded call for `CC1(C)O[C@@H]2C[C@H]3[C@@H]4C[C@H](F)C5=CC(=O)C=C[C@]5(C)[C@H]4[C@@H](O)C[C@]3(C)[C@]2(C(=O)CO)O1` in this test.
active

These data points were gathered from PubChem BioAssay (NCATS).
